In this section, each of the molecules is paired with its reported Parent drug metabolized by human hepatic microsomes.
- ASSAY_METHOD_TEXT: Oxidative metabolism by human hepatic microsomal fractions with or without NADPH
- Type: in vitro ADME
- SETUP_CONDITIONS: presence of 1 mmol/L NADPH, 1 mg·mL^−1, 5 μmol/L, 30 min

Past entries and their recorded results:
CCCCc1oc2ccc(NS(C)(=O)=O)cc2c1C(=O)c1ccc(OCCCN(CCCC)CCCC)cc1.Cl [Dronedarone]	~60%
CCCCc1oc2ccc(NS(C)(=O)=O)cc2c1C(=O)c1ccc(OCCC(=O)O)cc1 [Propanoic acid-dronedarone]	50%

Now for another entry.
input: Entry under review: CCCCNCCCOc1ccc(C(=O)c2c(CCCC)oc3ccc(NS(C)(=O)=O)cc23)cc1 [N-debutyl-dronedarone] . Reported Parent drug metabolized by human hepatic microsomes?
output: 25–30%
